Test: blockers of mitochondrial fusion, WT vs mutant – cell-based, chemical genetic, wild-type and mutant, confirmation (AID 1361)
Details: Cell-based mitochondrial fusion phenotype, imaging, WT cells
Activity calls are given as the source filed them. No rule for the calls is given here.
Outcome codes: Y for active, N for inactive

molecule	label-value
CCCCc1cc2c(s1)CCCC/C2=N/O	N
Cc1ccc(C)c(NC(=O)c2cc(-c3ccccc3)nn2-c2ccccc2)c1	Y
N#C/C(=C\c1cccc(NC(=O)c2ccccc2Cl)c1)C(=O)NCCc1ccccc1	Y
COc1cc(Nc2nc(-c3ccccc3)c3cc(C)ccc3n2)cc(OC)c1OC	Y
CCc1cccc(CC)c1NC(=S)NCCc1c(C)[nH]c2ccccc12	Y
CC(C)SCc1cc(N2CCCC2)nc(-c2ccccc2)n1	Y
CCOP(=O)(OCC)C(Nc1cccc(C(F)(F)F)c1)c1ccc(Br)cc1 (stereo unspecified)	Y
COc1ccc(-c2nnc(SCC(=O)c3cccs3)o2)c(OC)c1	N
CC(C)(C)NC(=O)NC(=O)COC(=O)Cc1coc2ccc3ccccc3c12	Y
C=CCn1c(N)c(C(=O)OCC(C)C)c2nc3ccccc3nc21	N
CCN(CC)c1ccc(NC(=O)Nc2ccccc2C(F)(F)F)cc1	N
